# SUBJECT OF TEST: T1, human DLL4 extracellular domain (human, UniProt Q9NR61 27-529)
# T1 construct: purified recombinant ECD; biotin-labelled or 6xHis-tagged depending on the assay; also called huDLL4 ECD; hu DLL4 ECD
# RUN DESCRIPTION: SPR (Biacore)
Listing of recorded Kd by entry.
MEASURED ATTRIBUTE: Kd (nM)

INSERT INTO assay_data (binder, endpoint_result) VALUES
  ('h1A11.15 (antibody, V domains shown, humanized IgG; also called VH.2a/VL.1b 1A11) VH: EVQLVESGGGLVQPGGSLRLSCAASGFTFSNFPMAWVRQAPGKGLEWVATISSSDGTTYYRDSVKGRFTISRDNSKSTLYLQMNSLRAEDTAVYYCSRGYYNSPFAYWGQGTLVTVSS VL: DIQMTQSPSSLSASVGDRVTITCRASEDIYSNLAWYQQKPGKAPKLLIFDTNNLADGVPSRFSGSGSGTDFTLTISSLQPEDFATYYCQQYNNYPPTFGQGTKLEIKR', 14),
  ('h1A11.9 (antibody, V domains shown, humanized IgG; also called VH.1b/VL.1 1A11) VH: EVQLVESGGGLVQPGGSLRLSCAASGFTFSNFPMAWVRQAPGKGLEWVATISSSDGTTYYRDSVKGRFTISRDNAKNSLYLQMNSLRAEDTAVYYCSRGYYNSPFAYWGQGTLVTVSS VL: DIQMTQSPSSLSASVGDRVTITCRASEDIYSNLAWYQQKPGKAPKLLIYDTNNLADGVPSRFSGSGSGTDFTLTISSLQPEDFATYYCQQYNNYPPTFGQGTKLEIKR', 13),
  ('1A11 chimeric antibody (antibody, human IgG1, V domains shown, also called Chimera of 1A11; 1A11 (chimera)) VH: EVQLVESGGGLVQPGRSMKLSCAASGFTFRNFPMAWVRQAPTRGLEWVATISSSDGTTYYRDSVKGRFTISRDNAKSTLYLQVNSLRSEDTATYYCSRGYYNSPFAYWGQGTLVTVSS VL: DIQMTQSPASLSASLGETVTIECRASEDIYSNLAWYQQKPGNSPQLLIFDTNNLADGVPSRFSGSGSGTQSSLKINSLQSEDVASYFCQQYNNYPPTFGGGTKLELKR', 9);
